Listed here are compounds together with their documented Potency.
# Protocol details: qHTS of Nrf2 Activators: Hit Validation in Primary Assay; also: potency is read from the fitted curve at half-maximal effect; nearly all actives have a fitted effect of over 70% in size
# Recorded conditions: Nrf2/ARE reporter cell assay; activation; series mostly up to 46.1 µM
The whole screen tested about 1,100 compounds, of which about 860 (78%) were called active. Another 19% or so got no clear call; they are omitted. The set was probably picked from earlier hits. The list shows a part of the results.
Attribute measured: Potency

>>> measured("NC(=O)c1c(NC(=O)c2ccc([N+](=O)[O-])o2)sc2c1CCCC2")
"2.91 µM (active)"
>>> measured("CN(Cc1ccccc1)C(=O)c1ccc([N+](=O)[O-])o1")
"16.4 µM (active)"
>>> measured("Cc1cc(NC(=O)CC(C)(C)C)nc2c1c(=O)oc1ccccc12")
"3.66 µM (active)"
>>> measured("COC(=O)c1c(NC(=O)/C=C/c2ccco2)sc2c1CCC2")
"0.461 µM (active)"
>>> measured("NC(=O)c1oc2ccccc2c1NC(=O)c1ccco1")
"2.31 µM (active)"
>>> measured("COC(=O)C(=C/C=C/c1ccco1)C(=O)OC")
"9.2 µM (active)"
>>> measured("CCCc1cc(C(N)=O)c(NC(=O)c2ccco2)s1")
"4.61 µM (active)"
>>> measured("Cc1cc(NC(=O)c2ccccc2)nc2c1c(=O)oc1ccccc12")
"1.46 µM (active)"
>>> measured("NC(=O)c1c(NC(=O)c2ccco2)sc2c1CCC2")
"2.59 µM (active)"
>>> measured("NC(=O)c1oc2ccccc2c1NC(=O)c1ccccc1")
"2.59 µM (active)"
>>> measured("O=C1Nc2ccccc2/C1=C/c1ccccc1Cl")
"2.31 µM (active)"
>>> measured("Cc1cc(NC(=O)C2CCCC2)nc2c1c(=O)oc1ccccc12")
"2.31 µM (active)"

* * *

# Protocol details: qHTS of Nrf2 Activators: Hit Validation in Primary Assay; also: potency is read from the fitted curve at half-maximal effect; nearly all actives have a fitted effect of over 70% in size
# Recorded conditions: Nrf2/ARE reporter cell assay; activation; series mostly up to 46.1 µM
Among all 1,100 compounds or so, about 860 (78%) were called active. Roughly 19% stayed inconclusive and do not appear here. The set was probably picked from earlier hits. The list shows a part of the results.
Attribute measured: Potency

>>> measured("Brc1ccccc1C1N=C(c2ccccc2)NO1 (stereo not drawn)")
"5.8 µM (active)"
>>> measured("O=C(CSc1nnc(-c2ccco2)c(-c2ccco2)n1)c1ccccc1")
"5.17 µM (active)"
>>> measured("O=C(/C=C/c1ccco1)Nc1cccc2cccnc12")
"0.82 µM (active)"
>>> measured("O=C1C(=Cc2ccccc2Cl)CCc2ccccc21")
"20.6 µM (active)"
>>> measured("Cn1c(NCC2CCCCC2)nc2cc(-c3ccsc3)sc2c1=O")
"2.31 µM (active)"
>>> measured("N#Cc1nc(-c2ccco2)oc1N1CCCC1")
"2.31 µM (active)"
>>> measured("Cc1cccc(CC2S/C(=N/N=C/c3ccco3)NC2=O)c1 (stereo not drawn)")
"0.206 µM (active)"
>>> measured("CSc1ccccc1NC(=O)c1cc(-c2cccs2)on1")
"2.91 µM (active)"
>>> measured("NC(=O)c1ccsc1NC(=O)COC(=O)[C@@H]1CCCN1C(=O)c1cccs1")
"6.51 µM (active)"
>>> measured("c1ccc(-c2cc3c(-n4cccc4)ncnc3o2)cc1")
"2.06 µM (active)"
>>> measured("O=C(Nc1cc(-c2nc3ncccc3o2)ccc1Cl)c1cccs1")
"4.11 µM (active)"
>>> measured("O=C(NCc1ccccc1)c1c(Cl)nc(Cl)c(Cl)c1Cl")
"2.91 µM (active)"
>>> measured("O=C(Oc1cccc(-c2cnc3ccccc3n2)c1)c1ccco1")
"3.26 µM (active)"
>>> measured("O=C(Cn1ncc(Cl)c(Cl)c1=O)NC1CCS(=O)(=O)C1 (stereo not drawn)")
"6.51 µM (active)"
>>> measured("Brc1cc(Br)c2nc(-c3cccs3)ccc2c1")
"4.11 µM (active)"
>>> measured("Cc1cc(C)c2c(N)c(C(=O)c3ccc(Br)cc3)oc2n1")
"4.11 µM (active)"
>>> measured("CC1CCCCC1NC(=O)COC(=O)c1c2c(nc3ccccc13)/C(=C/c1ccco1)CC2 (stereo not drawn)")
"8.2 µM (active)"
>>> measured("COC(=O)c1sccc1NC(=O)Nc1ccc(Cl)c(Cl)c1")
"14.6 µM (active)"
>>> measured("O=C(N/N=C/c1ccc(-c2cccc([N+](=O)[O-])c2)o1)c1cccs1")
"2.06 µM (active)"
>>> measured("Nc1nc(-c2ccccc2)cc(-c2ccccc2O)n1")
"4.11 µM (active)"
>>> measured("CCOc1ncccc1-c1nc(-c2cccs2)no1")
"18.4 µM (active)"
>>> measured("Clc1cc(Cl)cc(Nc2ncnc(-n3cccc3)n2)c1")
"2.59 µM (active)"
>>> measured("COC(=O)/C=C1/S/C(=N/N=C/c2ccco2)NC1=O")
"0.82 µM (active)"
>>> measured("O=[N+]([O-])c1cc2c(cc1Br)-c1ccccc1C2")
"2.31 µM (active)"
>>> measured("COc1cc(-c2noc(-c3cccs3)n2)cc(OC)c1OC")
"13 µM (active)"
>>> measured("COc1ccc(NC(=O)c2cc(-c3cccs3)on2)c(OC)c1")
"1.3 µM (active)"
>>> measured("O=[N+]([O-])c1cccc(-c2cnc3ccccc3n2)c1")
"6.51 µM (active)"
>>> measured("COc1cc(OC)c(OC)cc1/C=C1/Cc2ccccc2C1=O")
"8.2 µM (active)"
>>> measured("O=C1/C(=C\\c2ccc(Cl)cc2)CCC1CNc1ccc(Cl)cc1 (stereo not drawn)")
"3.66 µM (active)"
>>> measured("COc1ccc(Cl)cc1NC(=O)CCS(=O)(=O)c1cccc2nonc12")
"16.4 µM (active)"
>>> measured("COCCn1c(C(F)(F)F)ccc(NC(=O)c2ccccc2)c1=O")
"2.31 µM (active)"
>>> measured("O=C(Nc1ccccc1)c1cc([N+](=O)[O-])ccc1Cl")
"1.46 µM (active)"
